system_tested: Avi-KRAS WT (2-169) GTP/RAF1 RBD-3xFLAG (51-131) (Homo sapiens)
Construct: Avi-KRAS WT (2-169)
Sequence (P01116 2-169 isoform P01116-2): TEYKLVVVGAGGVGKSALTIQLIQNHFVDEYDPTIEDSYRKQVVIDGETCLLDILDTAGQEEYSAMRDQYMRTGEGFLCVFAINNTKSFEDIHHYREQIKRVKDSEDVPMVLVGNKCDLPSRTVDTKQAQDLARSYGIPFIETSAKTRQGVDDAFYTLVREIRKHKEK
assay_details: Raf1-KRAS WT-GTP disruption HTRF assay (Biological Example 3)
Assay type: binding
measurement_setup: KRAS WT, GTP-loaded
measured_quantity: IC50

Take a look at these entries with their results.
| molecule | IC50 |
| --- | --- |
| C[C@@H]1[C@H](N(C)c2nc(OC[C@@]34CCCN3C[C@H](F)C4)nc3c(F)c(-c4ccc(F)c5sc(N)c(C#N)c45)c(C(F)(F)F)cc23)CCN1C(=O)C1CC1 (atropisomer, axis not shown) | 0.1 to 1 µM |
| CCN(c1nc(OC[C@@]23CCCN2C[C@H](F)C3)nc2c(F)c(-c3ccc(F)c4sc(N)c(C#N)c34)c(C(F)(F)F)cc12)[C@@H]1CO[C@H]2OCC[C@H]21 (atropisomer, axis not shown) | 0.1 to 1 µM |

Let's switch to this molecule now.
For the molecule shown here, CCN(Cc1cccnc1)c1nc(OC[C@@]23CCCN2C[C@H](F)C3)nc2c(F)c(-c3ccc(F)c4sc(N)c(C#N)c34)c(C(F)(F)F)cc12 (atropisomer, axis not shown) , give the reported IC50.
1 to 10 µM

###

Each record here notes measured pIC50.
system_tested: Avi-KRAS G12V (2-169) GTP/RAF1 RBD-3xFLAG (51-131) (Homo sapiens, UniProt P01116, G12V)
Construct: Avi-KRAS G12V (2-169)
Sequence (P01116 2-169 isoform P01116-2 G12V): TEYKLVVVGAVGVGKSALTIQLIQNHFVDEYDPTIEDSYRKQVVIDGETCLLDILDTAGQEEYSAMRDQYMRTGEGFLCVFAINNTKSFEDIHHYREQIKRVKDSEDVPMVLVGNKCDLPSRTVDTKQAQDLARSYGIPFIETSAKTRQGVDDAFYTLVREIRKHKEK
assay_details: Raf1-KRAS G12V-GTP disruption HTRF assay (Biological Example 3)
Type: binding
measurement_setup: KRAS G12V, GTP-loaded
pIC50: −log10 of the molar value.

| compound | pIC50 |
| --- | --- |
| CCN(c1nc(OC[C@@]23CCCN2C[C@H](F)C3)nc2c(F)c(-c3ccc(F)c4sc(N)c(C#N)c34)c(C(F)(F)F)cc12)[C@H]1C[C@H]2CN(C3COC3)C(=O)N2C1 (atropisomer, axis not shown) | 6.00 to 7.00 |
| CCN(c1nc(OC[C@@]23CCCN2C[C@H](F)C3)nc2c(F)c(-c3ccc(F)c4sc(N)c(C#N)c34)c(C(F)(F)F)cc12)[C@H]1CCCN(C)C1=O (atropisomer, axis not shown) | 5.00 to 6.00 |
| CCN(c1nc(OC[C@@]23CCCN2C[C@H](F)C3)nc2c(F)c(-c3ccc(F)c4sc(N)c(C#N)c34)c(C(F)(F)F)cc12)[C@@H]1C[C@@H](C)N(C(C)=O)C1 (atropisomer, axis not shown) | 6.00 to 7.00 |
| CCN(c1nc(OC[C@@]23CCCN2C[C@H](F)C3)nc2c(F)c(-c3ccc(F)c4sc(N)c(C#N)c34)c(C(F)(F)F)cc12)[C@@H]1CCN(c2cccn(C)c2=O)C1 | 5.00 to 6.00 |

Let's switch to this compound now.
For the compound shown here, CCN(c1nc(OC[C@@]23CCCN2C[C@H](F)C3)nc2c(F)c(-c3ccc(F)c4sc(N)c(C#N)c34)c(C(F)(F)F)cc12)[C@H]1CCCOC1 (atropisomer, axis not shown) , give the reported pIC50.
6.00 to 7.00

###

Tested on: MKN1 cells (KRAS amplification)
assay_details: Cell-based pERK HTRF assay in MKN1 cells (Biological Example 5)
measurement_setup: MKN cells (MKN1, KRAS amplification)
measured_quantity: IC50

For the compound shown here, CCN(c1nc(OCC23CCCN2CC(F)C3)nc2c(F)c(-c3ccc(F)c4sc(N)c(C#N)c34)c(C(F)(F)F)cc12)C1CC(C)N(C(=O)N2CC(F)C2)C1 (stereo not shown) [Compound 759] , give the reported IC50.
≤ 0.1 µM
